- assayed-target: human NEP ectodomain (Homo sapiens, UniProt P08473)
- Construct: A purified human NEP ectodomain was used in continuous activity assays; made in house
- Sequence (P08473 52-750 limits assumed): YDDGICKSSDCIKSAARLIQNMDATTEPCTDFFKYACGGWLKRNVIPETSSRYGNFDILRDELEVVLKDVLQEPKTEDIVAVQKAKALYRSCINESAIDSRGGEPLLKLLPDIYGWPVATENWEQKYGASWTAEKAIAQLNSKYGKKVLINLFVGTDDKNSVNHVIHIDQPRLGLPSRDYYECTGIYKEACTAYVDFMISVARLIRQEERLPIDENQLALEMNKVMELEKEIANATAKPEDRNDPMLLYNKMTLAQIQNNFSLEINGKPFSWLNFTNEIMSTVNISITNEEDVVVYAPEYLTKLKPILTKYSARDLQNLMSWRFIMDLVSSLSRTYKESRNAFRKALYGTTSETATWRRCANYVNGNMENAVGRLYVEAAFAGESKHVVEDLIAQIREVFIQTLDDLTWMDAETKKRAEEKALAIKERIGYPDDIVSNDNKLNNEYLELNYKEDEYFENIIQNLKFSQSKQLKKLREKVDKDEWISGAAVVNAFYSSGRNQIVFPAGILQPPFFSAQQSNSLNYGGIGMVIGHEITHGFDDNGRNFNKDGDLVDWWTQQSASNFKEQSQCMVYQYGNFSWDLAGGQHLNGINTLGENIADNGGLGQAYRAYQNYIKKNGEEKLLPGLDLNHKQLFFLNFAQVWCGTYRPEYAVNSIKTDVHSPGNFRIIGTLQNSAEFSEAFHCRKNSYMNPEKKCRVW
- assay-explanation: NEP inhibition assay (continuous fluorogenic activity assay)
- Assay type: biochemical
- experimental-context: 0.4 nM NEP, 5 μM MCA-[…](Dnp)-OH substrate; mean ± standard error, n ≥ 2
pIC50: −log10 of the molar value.

structure-string: NCCCC[C@H](NC(=O)[C@@H](S)Cc1ccccc1)C(=O)N[C@@H](Cc1c[nH]c2ccccc12)C(=O)O
pIC50: 6.00
